# ASSAY TEXT: self-splicing fitness, log relative to wild type (ln ratio); higher = more splicing; Tetrahymena group I intron in knt gene, E. coli kanamycin selection, DiMSum; sequences stand for … in CUCUCU…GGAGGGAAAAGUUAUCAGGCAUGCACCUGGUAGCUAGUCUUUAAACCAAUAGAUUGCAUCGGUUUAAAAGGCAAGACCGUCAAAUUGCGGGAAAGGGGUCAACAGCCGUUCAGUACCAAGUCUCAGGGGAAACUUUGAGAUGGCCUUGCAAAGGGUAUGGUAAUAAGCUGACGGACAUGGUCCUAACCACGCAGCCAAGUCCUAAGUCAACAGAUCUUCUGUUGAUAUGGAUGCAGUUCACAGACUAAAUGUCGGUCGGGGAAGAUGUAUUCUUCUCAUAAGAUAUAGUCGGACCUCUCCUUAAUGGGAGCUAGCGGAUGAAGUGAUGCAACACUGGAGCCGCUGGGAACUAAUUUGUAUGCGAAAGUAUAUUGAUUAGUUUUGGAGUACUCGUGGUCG;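 also: selection with 25 µg/mL kanamycin versus none on LB agar overnight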
# CONDITION: 30 °C

SEQ STRING	self-splicing fitness (ln)
CUGUAGCAAUAUUACGAACC	-2.02
UGCGAGCAAUAUUACGUACA	-2.18
UGUGAGCAAUAUUACGUCUA	-1.51
UGUCAGCAAUAUUACGACCA	-0.0909
CUAGAGCAAUAUUACGUGAA	-3.81
CUUAAGCAAUAUUACGGCCG	-0.607
AGCCAGCAAUAUUACGUGAA	-3.14
